# Test system: Karpas-299
# Experimental details: Cell proliferation experiment (Cell-Titer GLO), Karpas-299
# Format: cell-based
# Condition summary: Homo sapiens, 72 h
pIC50: −log10 of the molar value.
Metric: pIC50

Recorded results for 4 compounds are shown here.
>  <Compound>
Cc1cc(Nc2ncc(Cl)c(Nc3cn(C)nc3S(=O)(=O)C(C)C)n2)c2c(c1C1CCNCC1)C[C@@H](C)O2 [REX-D1]

>  <pIC50>
> 7.70

$$$$
>  <Compound>
Cc1cc(Nc2ncc(Cl)c(Nc3ccccc3S(=O)(=O)C(C)C)n2)c(OC(C)C)cc1C1CCNCC1 [Ceritinib, reference compound]

>  <pIC50>
7.07 to 7.40

$$$$
>  <Compound>
Cc1cc(Nc2ncc(Cl)c(Nc3cn(C)nc3S(=O)(=O)C(C)C)n2)c2c(c1C1CCN(C)CC1)C[C@@H](C)O2 [REX-D2]

>  <pIC50>
> 8.00

$$$$
>  <Compound>
Cc1cc(Nc2ncc(C(F)(F)F)c(Nc3cn(C)nc3S(=O)(=O)C(C)C)n2)c2c(c1C1CCNCC1)C[C@@H](C)O2

>  <pIC50>
> 7.70

$$$$

For the next question, use this compound.
Reported pIC50, compound Cc1cc(Nc2ncc(C(F)(F)F)c(Nc3cn(C)nc3S(=O)(=O)C(C)C)n2)c2c(c1C1CCN(C)CC1)C[C@@H](C)O2 : ____ > 8.00

---

# Experimental target: TEL-ALK-F1174L-BaF3 (Homo sapiens, UniProt Q9UM73, F1174L, cells depend on it)
# Construct: fused on or other part: TEL (ETV6) N-terminal oligomerising part fused before the ALK intracellular/kinase part; P41212 (Transcription factor ETV6)
# Sequence (Q9UM73 whole entry F1174L, the tested form may be a part): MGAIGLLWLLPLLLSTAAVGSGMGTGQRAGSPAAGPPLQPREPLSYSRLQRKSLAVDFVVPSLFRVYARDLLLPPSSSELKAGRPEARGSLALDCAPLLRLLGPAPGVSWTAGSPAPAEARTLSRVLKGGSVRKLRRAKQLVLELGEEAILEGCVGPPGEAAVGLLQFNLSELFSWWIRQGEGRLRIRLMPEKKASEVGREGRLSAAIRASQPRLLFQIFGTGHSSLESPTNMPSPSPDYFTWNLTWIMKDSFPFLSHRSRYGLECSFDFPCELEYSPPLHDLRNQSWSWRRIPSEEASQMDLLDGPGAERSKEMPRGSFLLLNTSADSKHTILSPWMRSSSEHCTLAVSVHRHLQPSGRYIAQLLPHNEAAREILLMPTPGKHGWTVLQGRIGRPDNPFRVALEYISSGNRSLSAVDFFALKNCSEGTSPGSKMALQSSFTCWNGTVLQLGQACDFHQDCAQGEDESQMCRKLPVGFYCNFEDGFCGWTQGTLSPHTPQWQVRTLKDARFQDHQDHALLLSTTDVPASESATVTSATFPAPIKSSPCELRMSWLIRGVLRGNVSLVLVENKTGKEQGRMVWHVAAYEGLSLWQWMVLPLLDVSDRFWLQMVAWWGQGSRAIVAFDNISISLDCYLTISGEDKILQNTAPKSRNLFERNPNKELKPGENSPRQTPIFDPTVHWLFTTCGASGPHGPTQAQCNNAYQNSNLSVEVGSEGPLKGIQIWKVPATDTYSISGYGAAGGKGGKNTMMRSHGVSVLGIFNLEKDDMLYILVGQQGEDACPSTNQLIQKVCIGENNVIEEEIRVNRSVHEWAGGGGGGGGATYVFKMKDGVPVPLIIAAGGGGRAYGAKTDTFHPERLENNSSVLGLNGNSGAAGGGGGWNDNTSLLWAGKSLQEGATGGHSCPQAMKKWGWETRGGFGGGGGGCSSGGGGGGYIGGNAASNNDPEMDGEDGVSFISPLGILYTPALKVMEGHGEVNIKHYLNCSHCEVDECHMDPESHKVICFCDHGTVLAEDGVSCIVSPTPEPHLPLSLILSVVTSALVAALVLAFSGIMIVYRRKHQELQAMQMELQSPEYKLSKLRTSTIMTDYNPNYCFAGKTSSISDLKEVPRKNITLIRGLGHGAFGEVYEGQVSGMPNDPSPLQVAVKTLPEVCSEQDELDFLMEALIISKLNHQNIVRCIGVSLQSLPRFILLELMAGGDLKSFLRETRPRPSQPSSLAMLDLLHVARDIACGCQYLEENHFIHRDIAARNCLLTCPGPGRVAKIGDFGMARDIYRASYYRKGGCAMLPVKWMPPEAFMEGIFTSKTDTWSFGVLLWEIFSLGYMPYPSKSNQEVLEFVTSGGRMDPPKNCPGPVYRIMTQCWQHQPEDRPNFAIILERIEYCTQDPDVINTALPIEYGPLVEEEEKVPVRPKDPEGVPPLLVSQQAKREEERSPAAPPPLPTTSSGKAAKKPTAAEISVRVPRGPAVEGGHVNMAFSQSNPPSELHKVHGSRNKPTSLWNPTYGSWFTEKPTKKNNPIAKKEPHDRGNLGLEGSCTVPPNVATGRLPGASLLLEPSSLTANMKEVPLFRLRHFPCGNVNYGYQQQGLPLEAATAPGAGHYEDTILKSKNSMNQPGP
# Experimental details: Cell proliferation experiment (Cell-Titer GLO), TEL-ALK-F1174L-BaF3
# Assay type: cell-based
# Condition summary: 72 h, read-out: IC50 TEL-ALK F1174L-BaF3
Metric: GI50 (nM)

Recorded results for 5 compounds are shown here.
>  <Compound>
Cc1cc(Nc2ncc(Cl)c(Nc3cn(C4CC4)nc3S(=O)(=O)C(C)C)n2)c2c(c1C1CCNCC1)C[C@@H](C)O2 [REX-D31]

>  <Metric>
GI50

>  <Unit of measure>
nM

>  <Assay result>
138

$$$$
>  <Compound>
Cc1cc(Nc2ncc(Cl)c(Nc3cn(C4CC4)nc3S(=O)(=O)CC(C)C)n2)c2c(c1C1CCNCC1)C[C@@H](C)O2 [REX-D40]

>  <Metric>
GI50

>  <Unit of measure>
nM

>  <Assay result>
94.8

$$$$
>  <Compound>
CC(C)S(=O)(=O)c1nn(C)cc1Nc1nc(Nc2cc(F)c(C3CCNCC3)c3c2O[C@H](C)C3)ncc1Cl [REX-D21]

>  <Metric>
GI50

>  <Unit of measure>
nM

>  <Assay result>
17.8

$$$$
>  <Compound>
Cc1cc(Nc2ncc(Cl)c(Nc3cn(C)nc3S(=O)(=O)C(C)C)n2)c2c(c1C1CCN(C3CCNCC3)CC1)C[C@@H](C)O2 [REX-D13]

>  <Metric>
GI50

>  <Unit of measure>
nM

>  <Assay result>
94.3

$$$$
>  <Compound>
Cc1cc(Nc2ncc(C(F)(F)F)c(Nc3cn(C4CC4)nc3S(=O)(=O)C(C)C)n2)c2c(c1C1CCN(C)CC1)C[C@@H](C)O2 [REX-D9]

>  <Metric>
GI50

>  <Unit of measure>
nM

>  <Assay result>
51.8

$$$$

(P) Cc1cc(Nc2ncc(Cl)c(Nc3cn(C(C)C)nc3S(=O)(=O)C(C)C)n2)c2c(c1C1CCN(C)CC1)C[C@@H](C)O2 [REX-D35]
(Q) Cc1cc(Nc2ncc(Cl)c(Nc3cn(C)nc3S(=O)(=O)C(C)C)n2)c2c(c1C1CCN(C)CC1)CCC(C)O2 (stereo not drawn) [REX-D25]
Form: Entry with minimum GI50 (choose one): P / Q Reply with the label of the item you choose. Q
(Q: 11.1 nM, P: 80.4 nM)
